assayed_system: T1, recombinant human M-CSF (human, UniProt P09603 33-190, limits assumed)
T1 construct: The active form is described as a disulfide bonded dimer; also called M-SCF; CSF-1
T1 sequence: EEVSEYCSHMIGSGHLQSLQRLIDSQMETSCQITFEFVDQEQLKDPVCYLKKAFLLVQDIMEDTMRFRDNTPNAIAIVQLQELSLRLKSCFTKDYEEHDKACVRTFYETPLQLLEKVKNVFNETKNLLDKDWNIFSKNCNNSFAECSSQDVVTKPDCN
method: SPR (Biacore), M-CSF amine-coupled on CM5 chip, antibody flowed, 25 C, 1:1 model
quantity_measured: kon (M⁻¹ s⁻¹)
Your answer is read as M⁻¹ s⁻¹, so omit the unit and give the number.

INSERT INTO assay_data (binder, units_of_measure, recorded_value) VALUES
  ('heRX1-2.G2 (antibody, V domains shown, not shown: human Gamma-2 heavy chain constant region; human Kappa light chain constant region (the printed V regions end in EIKRT, which may overlap its start)) VH: QVQLQESGPGLVKPSQTLSLTCTVSDYSITSDYAWNWIRQFPGKGLEWMGYISYSGSTSYNPSLKSRITISRDTSKNQFSLQLNSVTAADTAVYYCASFDYAHAMDYWGQGTTVTVSS VL: EIVLTQSPGTLSVSPGERVTFSCRASQSIGTSIHWYQQKTGQSPRLLIKYASERISGIPDRFSGSGSGTDFTLTISRVESEDFADYYCQQINSWPTTFGQGTKLEIKR', 'M⁻¹ s⁻¹', 218000);

(Q) Using the record for heRX1-3.G2 (antibody, V domains shown, not shown: human Gamma-2 heavy chain constant region; human Kappa light chain constant region (the printed V regions end in EIKRT, which may overlap its start)) VH: DVQLQESGPGLVKPSQTLSLTCTVTDYSITSDYAWNWIRQFPGKKLEWMGYISYSGSTSYNPSLKSRITISRDTSKNQFSLQLNSVTAADTATYYCASFDYAHAMDYWGQGTTVTVSS VL: EIVLTQSPGTLSVSPGERVTFSCRASQSIGTSIHWYQQKTGQAPRLLIKYASERATGIPDRFSGSGSGTDFTLTISRVESEDFADYYCQQINSWPTTFGQGTKLEIKR , report its kon.
(A) 201000

These measurements were taken from patent US20170152311A1.
